target: hmGluR5a receptor (Homo sapiens); assay: Calcium flux assay (fura-2, glutamate-evoked [Ca2+]i); conditions: assay not given; follows the calcium flux / PI statement; read-out: IC50 (mGluR5 inhibitory activity)
Sequence (P41594 21-1180 isoform P41594-2 limits assumed): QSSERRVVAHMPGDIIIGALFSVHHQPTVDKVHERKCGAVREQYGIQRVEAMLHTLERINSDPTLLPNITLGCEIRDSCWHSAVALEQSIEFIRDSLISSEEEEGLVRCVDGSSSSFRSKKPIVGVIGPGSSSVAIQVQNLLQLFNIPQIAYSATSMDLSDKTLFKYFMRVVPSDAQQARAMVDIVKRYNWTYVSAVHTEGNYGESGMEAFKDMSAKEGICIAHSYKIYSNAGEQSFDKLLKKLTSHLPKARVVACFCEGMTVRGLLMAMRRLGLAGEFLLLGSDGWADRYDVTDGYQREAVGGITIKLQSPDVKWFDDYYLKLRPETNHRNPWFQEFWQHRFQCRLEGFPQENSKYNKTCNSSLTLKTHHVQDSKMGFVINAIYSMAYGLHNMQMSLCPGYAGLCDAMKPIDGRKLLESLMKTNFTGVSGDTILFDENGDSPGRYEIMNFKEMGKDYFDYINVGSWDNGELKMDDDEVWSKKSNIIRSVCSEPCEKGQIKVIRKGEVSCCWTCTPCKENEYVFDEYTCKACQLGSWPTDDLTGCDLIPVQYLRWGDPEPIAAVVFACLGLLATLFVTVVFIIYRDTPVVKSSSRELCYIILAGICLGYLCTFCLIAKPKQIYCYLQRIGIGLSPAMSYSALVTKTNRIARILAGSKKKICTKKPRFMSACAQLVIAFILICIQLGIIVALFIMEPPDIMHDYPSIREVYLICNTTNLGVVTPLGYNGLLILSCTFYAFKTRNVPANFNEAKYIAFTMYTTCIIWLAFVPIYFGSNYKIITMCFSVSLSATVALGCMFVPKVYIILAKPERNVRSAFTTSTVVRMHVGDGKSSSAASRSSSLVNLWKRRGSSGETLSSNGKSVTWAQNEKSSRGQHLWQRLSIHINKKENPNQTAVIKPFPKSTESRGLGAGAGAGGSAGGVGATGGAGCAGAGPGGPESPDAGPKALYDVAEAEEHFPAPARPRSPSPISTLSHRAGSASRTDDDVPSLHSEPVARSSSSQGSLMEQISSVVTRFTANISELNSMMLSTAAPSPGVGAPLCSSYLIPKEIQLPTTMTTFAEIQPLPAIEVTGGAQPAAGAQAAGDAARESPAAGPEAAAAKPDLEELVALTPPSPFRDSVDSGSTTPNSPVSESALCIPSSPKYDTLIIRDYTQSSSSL
pIC50: −log10 of the molar value.
reported metric: pIC50

[
  {
    "compound": "Nc1nc(C(F)(F)F)cnc1C(=O)Nc1ccccn1 [Example 38]",
    "pIC50": 5.89
  }
]

a: Cc1cccc(C(=O)Nc2cccc(-c3ccccc3)n2)n1 [Example 58]
b: N#Cc1cccc(NC(=O)c2nc(Cl)cnc2N)n1 [Example 29]
Query :: When the recorded pIC50 values are compared, which is smaller: that of a or that of b ? Write down the label of the entry you select.
Result :: a
(a: 5.52, b: 6.30)
